Test system: A498 renal
method_description: NCI-60 one-dose screen, 48 h (100 = growth as untreated, 0 = no growth, -100 = all killed)
applied_conditions: 10 µM unless noted
This is part of a sample that, as a whole, favours compounds with a hit. Of some 83,000 tested, about 20% had one in any assay. The source made the active and inactive calls. The calls were made as follows: active = growth percent below 10; inactive = the rest.
A collection of compounds and their measured growth

// solved cases for growth follow
// growth value for CC1CCC(C(C)(C)[N+](C)(C)C)CC1 (configuration not stated) : 86.8% (inactive)

// growth value for CC(=O)N(C)N=Nc1ccc(C)cc1 : 100% (inactive)

// growth value for O=C(NCc1ccco1)Nc1cccc2c(NC(=O)NCc3ccco3)cccc12 : 110% [100 µM] (inactive)

// growth value for CCNC(=O)OCCc1c2ccccc2nc2ccccc12 : 111% (inactive)

// growth value for Oc1ccc2ccccc2c1CN1CCOCC1 : 112% (inactive)

// growth value for CCCCN(C=S)CCCC : 91.4% (inactive)

// growth value for Ic1cccs1 : 96.5% (inactive)

// growth value for Cc1ccc(C)c2c1CCC2=O : 56.8% (inactive)

Continuing:
// growth value for C1CCc2onc(-c3noc4c3CCCCC4)c2CC1 : 146% (inactive)

// growth value for Cc1ccc(N)c(S(=O)(=O)O)c1 : 118% (inactive)

// growth value for Cc1cccnc1NC1OC(=O)c2ccccc21 (configuration not stated) : 94.7% (inactive)

// growth value for COc1ccc(Br)c(C=O)c1 : 93.4% (inactive)

These data points were gathered from PubChem BioAssay (NCI).
